Ref: ChEMBL document CHEMBL1201862

Exercise: for every item that follows, state its recorded GI50.
Tested on: U-251
method.description: NCI tumour cell line growth inhibition, 48 h
The source made the active and inactive calls. Cut-off read from the data, not from the text of the source: active = GI50 up to about 1.1 µM and inactive = higher.

| molecule | GI50 |
| --- | --- |
| N#C/C(=C\c1ccncc1)c1csc2ccccc12 | 23.5 µM (inactive) |
| COc1ccc(-c2c(C#N)c(-c3ccc(C)cc3)n(NS(=O)(=O)c3ccccc3)c(=O)c2C#N)cc1 | 42.2 µM (inactive) |
| CN(C)c1ccc2nc(CC(O)(C(F)(F)F)C(F)(F)F)ccc2c1 | > 10 µM (inactive) |
| CCOP(=O)(OCC)OC1c2[nH]cc(C(=O)OCc3ccccc3)c2-c2cc(C(=O)OC)[nH]c2C1OC (centres undefined) | 11.4 µM (inactive) |
| O=S(=O)(O)C(F)(F)C(F)(F)C(F)(F)C(F)(F)F | > 100 µM (inactive) |

Hi team, please reply with GI50 for each item in this list.
1. COC(=O)C(=O)C(C(=O)C(N)=O)c1nc2ccc(C(=O)c3ccccc3)cc2nc1O (centres undefined)
2. COC(=O)[C@@]12C(=O)C(C)C(=O)[C@]1(C)C(C)=C[C@H]1[C@]3(C=O)CC[C@H](OC(C)=O)C(C)(C)[C@H]3CC[C@@]12C (some centres undefined)
3. CC(=O)NC1=C(C)C(=O)c2c(nc3n2CCC3O)C1=N (centres undefined)
4. COC(=O)[C@@H]1C(=O)O[C@@H](c2ccc(OC)c(OC)c2OC)[C@@H]1C(=O)OC.COC(=O)[C@H]1C(=O)O[C@@H](c2ccc(OC)c(OC)c2OC)[C@@H]1C(=O)OC
5. O=C(NCCCN(CCCCN(CCCNC(=O)c1cc(S(=O)(=O)O)cc(O)c1O)C(=O)c1cc(S(=O)(=O)O)cc(O)c1O)C(=O)c1cc(S(=O)(=O)O)cc(O)c1O)c1cc(S(=O)(=O)O)cc(O)c1O
6. COc1cc(C2C(Cl)C(=O)N2NC(=O)c2ccccc2O)ccc1O (centres undefined)
7. CN/N=C(\C(=O)Nc1ccc(C)c(C)c1)C(C(=O)OC)c1nc2ccc([N+](=O)[O-])cc2nc1O (centres undefined)

## Result
1. > 100 µM (inactive)
2. > 100 µM (inactive)
3. 13.2 µM (inactive)
4. > 100 µM (inactive)
5. > 100 µM (inactive)
6. > 100 µM (inactive)
7. > 100 µM (inactive)

Hi team, please reply with GI50 for each item in this list.
1. Clc1ccc(Cc2nc3cc(CCN4CCN(c5ccccc5)CC4)ccc3[nH]2)cc1
2. NS(=O)(=O)c1nnc(NS(=O)(=O)c2ccc(Cl)cc2)s1

## Result
13 µM (inactive)
> 100 µM (inactive)

Hi team, please reply with GI50 for each item in this list.
1. COc1cc(OC)c2c(O)c(S(=O)(=O)c3ccc(C)cc3)c(=O)oc2c1
2. C/C(=N\NC(N)=S)c1sc(-n2nc(-c3ccccc3)cc2-c2ccccc2)nc1C
3. O=C(O)c1ccccc1/C=N\N=C1NCCN1
4. COc1ccc(/C=N/N2C(=O)c3c(N)c(C#N)c(-c4ccccc4)c(-c4ccccc4)c3C2=O)cc1
5. O=C1c2cc(Cc3ccccc3)c(=O)c(Cc3ccccc3)cc2C(=O)c2cc(Cc3ccccc3)c(=O)c(Cc3ccccc3)cc21

## Result
1. 96.6 µM (inactive)
2. > 100 µM (inactive)
3. > 100 µM (inactive)
4. 98.6 µM (inactive)
5. > 100 µM (inactive)
